System: Mus musculus
Assay: Anticonvulsant activity in ip dosed Swiss albino mouse assessed as protection against maximal electroshock-induced seizures after 2 hrs
Type: functional
measured.metric: ED50 (mg/kg)
Response body: numeric value in mg/kg, unit text excluded.

[[record]]
compound = "O=C1C(c2ccccc2)CC(c2ccccc2)C(=O)N1c1ccccc1 (stereo unspecified)"
quantitative_readout = 43.7


Lookup: Item under review: Cc1ccc(N2C(=O)C(c3ccccc3Cl)CC(c3ccccc3Cl)C2=O)cc1 (stereo unspecified) . Reported ED50?
Found: 41.2

Lookup: Item under review: O=C1C(c2ccccc2Cl)CC(c2ccccc2Cl)C(=O)N1Cc1ccccc1 (stereo unspecified) . Reported ED50?
Found: 38.3

Lookup: Item under review: Cc1ccccc1N1C(=O)C(c2ccccc2Cl)CC(c2ccccc2Cl)C1=O (stereo unspecified) . Reported ED50?
Found: 27.4

Lookup: Item under review: NN1C(=O)C(c2ccccc2)CC(c2ccccc2)C1=O (stereo unspecified) . Reported ED50?
Found: 10

Lookup: Item under review: NN1C(=O)C(c2ccccc2Cl)CC(c2ccccc2Cl)C1=O (stereo unspecified) . Reported ED50?
Found: 11.2

Lookup: Item under review: NC(=O)N1c2ccccc2C=Cc2ccccc21 [CARBAMAZEPINE] . Reported ED50?
Found: 11.8

Lookup: Item under review: O=C1C(c2ccccc2Cl)CC(c2ccccc2Cl)C(=O)N1c1ccccc1 (stereo unspecified) . Reported ED50?
Found: 61.4

Lookup: Item under review: Cc1ccc(N2C(=O)C(c3ccccc3)CC(c3ccccc3)C2=O)cc1 (stereo unspecified) . Reported ED50?
Found: 82

Lookup: Item under review: CN1C(=O)C(c2ccccc2)CC(c2ccccc2)C1=O (stereo unspecified) . Reported ED50?
Found: 14.8

###

Assay: Neurotoxicity in ip dosed Swiss albino mouse assessed as impair in motor coordination from 0.5 to 4 hrs post administration by rotarod test
Type: toxicity, organism-based
Conditions: in vivo
TD50: recorded values
Response body: numeric value in mg/kg, unit text excluded.

Example entries begin here.
[[record]]
compound = "O=C1C(c2ccccc2Cl)CC(c2ccccc2Cl)C(=O)N1c1cccc(Cl)c1 (stereo not given)"
measured_metric = "TD50"
quantitative_readout = 108

[[record]]
compound = "O=C1C(c2ccccc2Cl)CC(c2ccccc2Cl)C(=O)N1c1ccccc1 (stereo not given)"
measured_metric = "TD50"
quantitative_readout = 198


Lookup: Item under review: O=C1NC(=O)C(c2ccccc2)CC1c1ccccc1 (stereo not given) . Reported TD50?
Found: 193

Lookup: Item under review: Cc1ccc(N2C(=O)C(c3ccccc3Cl)CC(c3ccccc3Cl)C2=O)cc1 (stereo not given) . Reported TD50?
Found: 86.5

Lookup: Item under review: O=C1C(c2ccccc2)CC(c2ccccc2)C(=O)N1c1ccccc1 (stereo not given) . Reported TD50?
Found: 165

Lookup: Item under review: Cc1ccc(N2C(=O)C(c3ccccc3)CC(c3ccccc3)C2=O)cc1 (stereo not given) . Reported TD50?
Found: 190

###

Test system: Mus musculus
Assay: Anticonvulsant activity in ip dosed Swiss albino mouse assessed as protection against maximal electroshock-induced seizures after 2 hrs
Format: functional
Just a reminder that ties go to Not met: only ED50 strictly below 30 mg/kg counts as Met.

Consider the worked cases shown below.
[[record]]
molecule = "CN1C(=O)C(c2ccccc2Cl)CC(c2ccccc2Cl)C1=O (stereo unspecified)"
answer_label = "Met"

[[record]]
molecule = "Cc1ccccc1N1C(=O)C(c2ccccc2)CC(c2ccccc2)C1=O (stereo unspecified)"
answer_label = "Met"

[[record]]
molecule = "O=C1NC(=O)C(c2ccccc2)CC1c1ccccc1 (stereo unspecified)"
answer_label = "Met"

[[record]]
molecule = "O=C1NC(=O)C(c2ccccc2Cl)CC1c1ccccc1Cl (stereo unspecified)"
answer_label = "Met"

[[record]]
molecule = "O=C1C(c2ccccc2)CC(c2ccccc2)C(=O)N1Cc1ccccc1 (stereo unspecified)"
answer_label = "Met"


Now let's try a different one.
Lookup: Consider O=C1C(c2ccccc2Cl)CC(c2ccccc2Cl)C(=O)N1c1cccc(Cl)c1 (stereo unspecified) . Does its ED50 lie strictly below 30 mg/kg?
Found: Not met

###

Test system: Mus musculus
Assay: Neurotoxicity in Swiss albino mouse assessed as impair in motor coordination at 300 mg/kg, ip after 4 hrs by rotarod test
Type: toxicity, organism-based
Design: dose 300 mg/kg, route intraperitoneal
Details: in vivo
measured.metric: Activity

Example entries begin here.
[[record]]
compound = "Cc1ccc(N2C(=O)C(c3ccccc3)CC(c3ccccc3)C2=O)cc1 (stereo unspecified)"
measured_metric = "Activity"
result = "Toxic"

[[record]]
compound = "O=C1C(c2ccccc2)CC(c2ccccc2)C(=O)N1c1cccc(Cl)c1 (stereo unspecified)"
measured_metric = "Activity"
result = "Non-toxic"

[[record]]
compound = "O=C1NC(=O)C(c2ccccc2Cl)CC1c1ccccc1Cl (stereo unspecified)"
measured_metric = "Activity"
result = "Non-toxic"

[[record]]
compound = "O=C1C(c2ccccc2Cl)CC(c2ccccc2Cl)C(=O)N1c1cccc(Cl)c1 (stereo unspecified)"
measured_metric = "Activity"
result = "Non-toxic"

[[record]]
compound = "Cc1ccccc1N1C(=O)C(c2ccccc2Cl)CC(c2ccccc2Cl)C1=O (stereo unspecified)"
measured_metric = "Activity"
result = "Non-toxic"


Lookup: Item under review: O=C1C(c2ccccc2)CC(c2ccccc2)C(=O)N1c1ccccc1 (stereo unspecified) . Reported Activity?
Found: Non-toxic

Lookup: Item under review: O=C1C(c2ccccc2)CC(c2ccccc2)C(=O)N1Cc1ccccc1 (stereo unspecified) . Reported Activity?
Found: Non-toxic

Lookup: Item under review: CN1C(=O)C(c2ccccc2Cl)CC(c2ccccc2Cl)C1=O (stereo unspecified) . Reported Activity?
Found: Toxic

Lookup: Item under review: O=C1C(c2ccccc2Cl)CC(c2ccccc2Cl)C(=O)N1c1ccccc1 (stereo unspecified) . Reported Activity?
Found: Non-toxic

Lookup: Item under review: O=C1C(c2ccccc2Cl)CC(c2ccccc2Cl)C(=O)N1Cc1ccccc1 (stereo unspecified) . Reported Activity?
Found: Non-toxic

###

Test: Neurotoxicity in ip dosed Swiss albino mouse assessed as impair in motor coordination from 0.5 to 4 hrs post administration by rotarod test
Type: toxicity, organism-based
Conditions: in vivo
TD50: recorded values
Response body: numeric value in mg/kg, unit text excluded.

[[record]]
compound = "NN1C(=O)C(c2ccccc2)CC(c2ccccc2)C1=O (centres undefined)"
measured_metric = "TD50"
quantitative_readout = 123

[[record]]
compound = "Cc1ccccc1N1C(=O)C(c2ccccc2)CC(c2ccccc2)C1=O (centres undefined)"
measured_metric = "TD50"
quantitative_readout = 104

[[record]]
compound = "O=C1NC(=O)C(c2ccccc2Cl)CC1c1ccccc1Cl (centres undefined)"
measured_metric = "TD50"
quantitative_readout = 175

[[record]]
compound = "CN1C(=O)C(c2ccccc2Cl)CC(c2ccccc2Cl)C1=O (centres undefined)"
measured_metric = "TD50"
quantitative_readout = 220

[[record]]
compound = "CN1C(=O)C(c2ccccc2)CC(c2ccccc2)C1=O (centres undefined)"
measured_metric = "TD50"
quantitative_readout = 323

[[record]]
compound = "O=C1C(c2ccccc2Cl)CC(c2ccccc2Cl)C(=O)N1Cc1ccccc1 (centres undefined)"
measured_metric = "TD50"
quantitative_readout = 106

[[record]]
compound = "O=C1C(c2ccccc2)CC(c2ccccc2)C(=O)N1Cc1ccccc1 (centres undefined)"
measured_metric = "TD50"
quantitative_readout = 218

[[record]]
compound = "Cc1ccccc1N1C(=O)C(c2ccccc2Cl)CC(c2ccccc2Cl)C1=O (centres undefined)"
measured_metric = "TD50"
quantitative_readout = 227


Lookup: Item under review: NN1C(=O)C(c2ccccc2Cl)CC(c2ccccc2Cl)C1=O (centres undefined) . Reported TD50?
Found: 117

###

System: Mus musculus
Experiment: Neurotoxicity in Swiss albino mouse assessed as impair in motor coordination at 300 mg/kg, ip after 4 hrs by rotarod test
Format: toxicity, organism-based
Set-up: dose 300 mg/kg, route intraperitoneal
Conditions: in vivo
measured.metric: Activity

[[record]]
compound = "O=C1NC(=O)C(c2ccccc2)CC1c1ccccc1 (stereo unspecified)"
result = "Non-toxic"

[[record]]
compound = "NN1C(=O)C(c2ccccc2)CC(c2ccccc2)C1=O (stereo unspecified)"
result = "Non-toxic"

[[record]]
compound = "CN1C(=O)C(c2ccccc2)CC(c2ccccc2)C1=O (stereo unspecified)"
result = "Toxic"

[[record]]
compound = "NN1C(=O)C(c2ccccc2Cl)CC(c2ccccc2Cl)C1=O (stereo unspecified)"
result = "Toxic"

[[record]]
compound = "Cc1ccccc1N1C(=O)C(c2ccccc2)CC(c2ccccc2)C1=O (stereo unspecified)"
result = "Non-toxic"


--- query ---
Lookup: Lab request: please report Activity under test system Mus musculus for Cc1ccc(N2C(=O)C(c3ccccc3Cl)CC(c3ccccc3Cl)C2=O)cc1 (stereo unspecified)
Found: Non-toxic

FYI, the data here is from ChEMBL document CHEMBL1944625.
